# Protocol: Plasma pharmacokinetics by LC/PDA
# Stated Conditions: human, in vivo, im, 400 mg, IM Cmax (mean), 400 mg once daily, without pan (7-day run-in), ± s.e.m.
Where a name gives a salt, the structure may show the parent alone.
Endpoint Name: Cmax
Don't forget the unit after the value.

Fill in: Cmax of Cc1ccc(NC(=O)c2ccc(CN3CCN(C)CC3)cc2)cc1Nc1nccc(-c2cccnc2)n1 [IM, Imatinib mesylate] is ___
2070 ng/mL

* * *

# Protocol: Plasma pharmacokinetics by LC/PDA
# Stated Conditions: human, in vivo, im, Panobinostat Cmax (mean), 20 mg, D8, with IM 400 mg
Endpoint Name: Cmax (nM)
Give the value, in units of nM, as a plain number.

Fill in: Cmax of Cc1[nH]c2ccccc2c1CCNCc1ccc(/C=C/C(=O)NO)cc1 [panobinostat, Panobinostat] is ___
47.5
